# normalized growth listing for each entry below
# ASSAY NOTES: chemical genetic growth profiling, strain panel (AID 1159580);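 also: tested at 20 µM; growth read once vehicle control cultures reached saturation at 30 °C; 1 = growth at the plate median or of vehicle wells; lower values mean less growth of the strain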
# CONDITION CONTEXT: S. cerevisiae deletion strains, growth OD, locus YPL209C, strain IPL1, active compounds read low
Out of some 5,500 compounds screened, about 2,000 (36%) were called active. Roughly 18% stayed inconclusive and do not appear here. The list shows a part of the results.
Output: the number by itself.

As a guide, the following entries are already answered.
{"COMPOUND": "O=S(=O)(Oc1ccc(-c2csnn2)cc1)c1ccccc1Cl", "normalized growth": 0.975}
{"COMPOUND": "COC(=O)C1=C(Nc2ccccc2NS(=O)(=O)c2ccc(C(F)(F)F)cc2Cl)CSC1", "normalized growth": 0.975}
{"COMPOUND": "O=C(NOC(=O)c1ccccc1)c1ccccc1", "normalized growth": 0.0841}

Which value of normalized growth has been reported for O=C(Nc1ccc(F)cc1F)c1cc(Cl)c(-n2cccc2)c(Cl)c1 in the records?
0.975

Note, next up: Cc1ccc2nc(-c3ccc4c(c3)OCCO4)cn2c1
0.978

Note, next up: C#CCSC1=NNC(c2ccccn2)S1 (stereo not drawn)
0.951

Note, next up: NC(=S)N/N=C1/CCCc2ccccc21
0.934

Note, next up: O=C(Nc1cccc(Cl)c1)O/N=C1\CCCc2occc21
0.947

###

# ASSAY NOTES: chemical genetic growth profiling, strain panel (AID 1159580)
# CONDITION CONTEXT: S. cerevisiae deletion strains, growth OD, locus YMR129W
Screen size: about 5,500 compounds; about 2,000 (36%) were called active. Not shown: some 18% with an inconclusive outcome. No stated cut-off is given here; in the data, active means normalized growth mostly below about 0.91 (no sharp cut-off); inconclusive means no clear call, values can overlap the other calls; inactive means mostly above about 0.92. Some of the results follow.
Valid outcomes are listed here; reply with one: Yes for active, No for inactive

Consider the worked cases shown below.
{"COMPOUND": "CO[C@H]1CC(O[C@@H]2/C(C)=C/C[C@@H]3C[C@@H](C[C@]4(CC[C@H](C)[C@@H](C5CCCCC5)O4)O3)OC(=O)[C@@H]3C=C(C)/C(=N\\O)[C@H]4OC/C(=C\\C=C\\[C@@H]2C)[C@]43O)O[C@@H](C)C1O (stereo not given in full)", "CLASS": "No"}
{"COMPOUND": "Cc1cc(=O)oc2cc(O)c(O)cc12", "CLASS": "No"}
{"COMPOUND": "O=C(CC(=O)c1ccccc1)c1ccccc1", "CLASS": "Yes"}

Hi, sorry to bother you, what did the test record for OC[C@H]1O[C@@H](O[C@@H]2[C@@H](CO)O[C@](O)(CO)[C@H]2O)[C@H](O)[C@@H](O)[C@H]1O ?
No

Note, next up: NC(=O)NC(=O)Cc1ccccc1
No

Note, next up: O=C(OCc1ccccc1)c1ccccc1
No

Note, next up: CC(C)=CCc1c2c(c3occ(-c4ccc(O)c(O)c4)c(=O)c3c1O)C=CC(C)(C)O2
No

Note, next up: COC(=O)c1c(C)c2c(c(C)c1O)OC(=O)c1c(C)c(Cl)c(O)c(Cl)c1O2
No

Note, next up: CC(=O)Oc1ccc(/C=C/c2cc(OC(C)=O)cc(OC(C)=O)c2)cc1
No

Note, next up: CC1(C)CC2C1CC[C@]1(CBr)CCC3C(CC(=O)O)C(=O)O[C@@]32C1 (stereo not given in full)
No

Note, next up: O=C(OOC(=O)c1ccccc1)c1ccccc1
No

Note, next up: CC(=O)Oc1ccc(O)cc1
No

Note, next up: Cc1nc(N)cc(C[n+]2csc(CCO)c2C)n1
No

Note, next up: CC(C)=CCCC(C)[C@@H]1CC[C@]2(C)C3=C(CC[C@@]12C)C1(C)CC[C@H](O)C(C)(C)C1CC3 (stereo not given in full)
No

Note, next up: CC(Cc1cccc(C(F)(F)F)c1)NCCOC(=O)c1ccccc1 (stereo not given)
No

###

# ASSAY NOTES: chemical genetic growth profiling, strain panel (AID 1159580);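 also: tested at 20 µM; growth read once vehicle control cultures reached saturation at 30 °C; 1 = growth at the plate median or of vehicle wells; lower values mean less growth of the strain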
# CONDITION CONTEXT: S. cerevisiae deletion strains, growth OD, locus YJL115W, strain asf1, active compounds read low
About 2,000 (36%) of roughly 5,500 compounds were called active. About 18% were inconclusive and are not listed. The list shows a part of the results.
# normalized growth listing for each entry below

As a guide, the following entries are already answered.
{"MOLECULE": "Nc1ccc(C(=O)O)cc1", "PARAMETER MEASURED": "normalized growth", "OBSERVED RESULT": "1.02 (inactive)"}
{"MOLECULE": "C/C1=C/CC(C)(C)/C=C/C/C(C)=C/CC1", "PARAMETER MEASURED": "normalized growth", "OBSERVED RESULT": "0.988 (inactive)"}
{"MOLECULE": "CC(=O)Oc1ccc(C(c2ccc(OC(C)=O)cc2)c2ccccn2)cc1", "PARAMETER MEASURED": "normalized growth", "OBSERVED RESULT": "1.01 (inactive)"}
{"MOLECULE": "CC(=O)O[C@H]1CCC2(C)C3=C(CCC2C1(C)C)[C@@]1(C)CC[C@@H](C(C)CCC=C(C)C)[C@]1(C)CC3 (stereo partly specified)", "PARAMETER MEASURED": "normalized growth", "OBSERVED RESULT": "1.04 (inactive)"}
{"MOLECULE": "COC(=O)c1c(C)c2c(c(C)c1O)OC(=O)c1c(C)c(Cl)c(O)c(Cl)c1O2", "PARAMETER MEASURED": "normalized growth", "OBSERVED RESULT": "0.956 (inactive)"}

Which value of normalized growth has been reported for CC(=O)O[C@@H]1C=C[C@@]2(C)C(C[C@@H](OC(C)=O)[C@@]3(C)C4=CC(=O)O[C@@H](c5ccoc5)[C@]4(C)CCC23)C1(C)C (stereo partly specified) in the records?
0.99 (inactive)

Note, next up: CC1=CC(=O)c2c(O)cccc2C1=O
0.0773 (active)

Note, next up: CC(=O)O[C@@H]1CC2C(C)(C)[C@H](O)C=C[C@]2(C)C2CC[C@]3(C)C(=CC(=O)O[C@H]3c3ccoc3)[C@@]21C (stereo partly specified)
0.964 (inactive)

Note, next up: CC(=O)Oc1cccc(O)c1
1.01 (inactive)

Note, next up: OC[C@H]1O[C@@H](O[C@H]2[C@H](O)[C@@H](O)[C@@H](O)O[C@@H]2CO)[C@H](O)[C@@H](O)[C@@H]1O
0.99 (inactive)

Note, next up: CN[C@@H]1[C@H](O)[C@H](NC)[C@H]2O[C@@]3(O)C(=O)C[C@@H](C)O[C@H]3O[C@@H]2[C@H]1O
0.998 (inactive)

###

# ASSAY NOTES: chemical genetic growth profiling, strain panel (AID 1159580);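 also: tested at 20 µM; growth read once vehicle control cultures reached saturation at 30 °C; 1 = growth at the plate median or of vehicle wells; lower values mean less growth of the strain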
# CONDITION CONTEXT: S. cerevisiae deletion strains, growth OD, locus YJR043C, strain POL32, active compounds read low
About 2,000 (36%) of roughly 5,500 compounds were called active. Roughly 18% stayed inconclusive and do not appear here. The list shows a part of the results.
PARAMETER MEASURED: normalized growth

As a guide, the following entries are already answered.
{"SMILES NOTATION": "COc1c(C)c2c(c(C)c1Cl)Oc1c(Cl)c(OC)c(Cl)c(C)c1C(=O)O2", "normalized growth": "1.04 (inactive)"}
{"SMILES NOTATION": "COC(=O)c1c(OC)cc2c(c1C)Oc1c(Cl)c(O)c(Cl)c(C)c1C(=O)O2", "normalized growth": "0.977 (inactive)"}
{"SMILES NOTATION": "COC(=O)c1c(C)c2c(c(C)c1OC)OC(=O)c1c(C)c(Cl)c(OC)c(Cl)c1O2", "normalized growth": "1.03 (inactive)"}

Okay, next one:
Which value of normalized growth has been reported for COC(=O)c1c(C)c2c(c(C)c1O)OC(=O)c1c(C)c(Cl)c(O)c(Cl)c1O2 in the records?
0.853 (active)

###

# ASSAY NOTES: chemical genetic growth profiling, strain panel (AID 1159580);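 also: tested at 20 µM; growth read once vehicle control cultures reached saturation at 30 °C; 1 = growth at the plate median or of vehicle wells; lower values mean less growth of the strain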
# CONDITION CONTEXT: S. cerevisiae deletion strains, growth OD, locus YFR003C, strain YPI1, active compounds read low
Screen size: about 5,500 compounds; about 2,000 (36%) were called active. Inconclusive results (about 18%) are left out. The list shows a part of the results.
PARAMETER MEASURED: normalized growth
Output: the number by itself.

{"COMPOUND": "CSc1n[nH]c(-c2cc(C(C)(C)C)oc2C)c1C#N", "normalized growth": 0.95}
{"COMPOUND": "Cc1ccc2nc(-c3ccc4c(c3)OCCO4)cn2c1", "normalized growth": 0.983}
{"COMPOUND": "O=C(Nc1ccc(F)cc1F)c1cc(Cl)c(-n2cccc2)c(Cl)c1", "normalized growth": 0.975}
{"COMPOUND": "Cc1ccc(-n2cccc2)c(NS(=O)(=O)c2ccc(-c3ccno3)s2)c1", "normalized growth": 0.957}
{"COMPOUND": "C#CCSC1=NNC(c2ccccn2)S1 (stereo not drawn)", "normalized growth": 0.957}

Which value of normalized growth has been reported for Cc1nn(-c2cccc(Cl)c2)c2oc(=O)cc(C(F)(F)F)c12 in the records?
0.966

Note, next up: Cc1onc(-c2c(Cl)cccc2Cl)c1C(=O)O/N=C(/N)Cc1ccc(C(C)(C)C)cc1
0.996

Note, next up: Brc1ccc(-c2csc(-c3ccncc3)n2)cc1
0.942
